Entries and their measured IC50 follow.
Test system: 134 cancer cell lines
Experiment: Cell viability assay (ATPlite, 72 hours), IC50 on cancer cell line panel
Settings: Homo sapiens, TCC-SUP, read-out: IC50 in cell proliferation assay, cell line TCCSUP
valueKind: IC50 (nM)

| chemicalSmiles | relation | experimentalResult |
| --- | --- | --- |
| COc1ccc(CN2C3CC2CN(c2ccc(-c4cc(OCC(C)(C)O)cn5ncc(C#N)c45)cn2)C3)cn1 | = | 3130 |
| Cn1cnc2c(F)c(Nc3ccc(Br)cc3F)c(C(=O)NOCCO)cc21 | = | 363 |
| Cc1nc(NC(=O)N2CCC[C@H]2C(N)=O)sc1-c1ccnc(C(C)(C)C(F)(F)F)c1 | = | 1100 |
| Cn1cnc2c(F)c(Nc3ccc(Br)cc3Cl)c(C(=O)NOCCO)cc21 | > | 31600 |
| O=C(c1ccc(F)c(F)c1Nc1ccc(I)cc1F)N1CC(O)([C@@H]2CCCCN2)C1 | = | 483 |

Attribution: paper PMC9516332
